This listing pairs compounds with measured chromatographic logP.
assay: LogP measurement by HPLC on reversed phase columns (EEC directive 79/831 Annex V.A8); assay type: physicochemical; conditions: reversed phase HPLC column, method [a]: LC-UV, acidic range, 0.1% formic acid in water and acetonitrile as eluent

May I ask what chromatographic logP has been recorded for CCC(C)Sc1nccc(Oc2cc(C)c(N=CN(C)CC)cc2C)n1 (racemic) ?
1.87

Item: CCN(C)C=Nc1cc(C#N)c(Oc2ccnc(SCC(C)C)n2)cc1C
1.6

How about this compound: CCN(C)C=Nc1cc(C)c(Oc2ccnc(SC(C)(C)C)n2)cc1Cl
1.63

Another compound: CCN(C)C=Nc1cc(Br)c(Oc2ccnc(Sc3ccccc3)n2)cc1C
1.69

Now the same for CCN(C)C=Nc1cc(C)c(Oc2cc(SC(C)(C)C)nc(C)n2)cc1C
1.99

Another: CCN(C)C=Nc1cc(C)c(Oc2ccnc(SCC(F)(F)F)n2)cc1Cl
1.53

Entry to check: CCN(C)C=Nc1cc(Br)c(Oc2ccnc(SC(C)(C)C)n2)cc1C
1.72

Param item: CCN(C)C=Nc1cc(C)c(Oc2ccnc(SCC3CC3)n2)cc1C
1.55

Note, next up: CCCSc1nccc(Oc2cc(C)c(N=CN(C)CC)cc2Br)n1
1.66

Read the next record carefully.
Reported chromatographic logP for CCN(C)C=Nc1cc(Br)c(Oc2ccnc(SC(C)C)n2)cc1C : what is it?
1.6

---

Here, each record is paired with measured chromatographic logP data.
Experiment: LogP measurement by HPLC on reversed phase columns (EEC directive 79/831 Annex V.A8)
Assay type: physicochemical
Settings: reversed phase HPLC column, method [a]: LC-UV, acidic range, 0.1% formic acid in water and acetonitrile as eluent
Experimental: If more than one LogP value is available within the same method, all the values are given and separated by "+". Lambda-max-values were determined using UV-spectra from 200 nm to 400 nm and the peak values of the chromatographic signals.
Kindly provide the number alone.

Which chromatographic logP value is on record for CCN(C)C=Nc1cc(C)c(Oc2cc(C)nc(SCC(C)C)n2)cc1C ?
1.84

Can you check CCSc1nc(C)cc(Oc2cc(C)c(N=CN(C)CC)cc2C)n1 next?
1.52

Check CCN(C)C=Nc1cc(C)c(Oc2ccnc(SC(C)C)n2)cc1C too.
1.45

Then CCN(C)C=Nc1cc(C)c(Oc2ccnc(C(C)(C)C)n2)cc1C ?
1.46

Next up: CCN(C)C=Nc1cc(C(F)F)c(Oc2nc(SCC(C)C)ncc2C)cc1C
1.9

Let's switch to this compound now.
What chromatographic logP value was documented for this compound, CCN(C)C=Nc1cc(Br)c(Oc2ccnc(C(F)(F)F)n2)cc1C ?
1.32

---

assay: LogP measurement by HPLC on reversed phase columns (EEC directive 79/831 Annex V.A8); assay type: physicochemical; conditions: reversed phase HPLC column, method [b]: LC-UV, neutral range, 0.001 molar ammonium acetate solution in water and acetonitrile as eluent
Outcome Measure: chromatographic logP
Number only, no unit.

Item under review: CCN(C)C=Nc1cc(Br)c(Oc2ccnc(SC(C)C)n2)cc1C [I.014] . Reported chromatographic logP?
4.78

Lookup CCN(C)C=Nc1cc(Br)c(Oc2ccnc(C(F)(F)F)n2)cc1C [I.017]
4.08

# input for lookup
For the compound CCN(C)C=Nc1cc(Br)c(Oc2cc(SC(C)(C)C)nc(C)n2)cc1C [I.018] , what chromatographic logP is on record?
5.99
